Cited source for all entries: patent US20080234262A1

System: breast line MDA468
Test: In vitro cell culture growth assay (MTS), MDA468
Assay type: cell-based, human
Settings: Homo sapiens, 72 h, MDA468 cells, three days after drug treatment
quantity.kind: IC50 (nM)
Write the answer as a number in nM, unit excluded.

compound	obs.value
N#CN=C(N)Nc1ccc(-c2nc(N3CCOCC3)c3cnn(C4CCN(Cc5cccnc5)CC4)c3n2)cc1	1100
CNC(=O)Nc1ccc(-c2nc(N3CCOCC3)c3cnn(C4CCN(C(=O)N5CCN(C)CC5)CC4)c3n2)cc1 [Compound 578]	700
CC(C)OC(=O)N1CCC(n2ncc3c(N4CCOCC4)nc(-c4ccc(NC(=O)Nc5ccccn5)cc4)nc32)CC1	4600
COC(=O)N1CCC(n2ncc3c(N4CCOCC4)nc(-c4ccc(NC(=O)Nc5ccc(CCNCCO)cc5)cc4)nc32)CC1	120
CNC(=O)Nc1ccc(-c2nc(N3CCOCC3)c3cnn(C4CCN(C(=O)OC)CC4)c3n2)cc1 [Compound 721]	80
COCC(=O)N1CCC(n2ncc3c(N4CCOCC4)nc(-c4ccc5[nH]ccc5c4)nc32)CC1	900

Req: Could you share which IC50 value was measured for O=C(NCCF)Nc1ccc(-c2nc(N3CCOCC3)c3cnn(-c4ccccc4)c3n2)cc1 [Example 294] ?
Resp: 900

---

Test system: breast line MDA468
Test: In vitro cell culture growth assay (MTS), MDA468
Format: cell-based, human
Settings: Homo sapiens, 72 h, MDA468 cells, three days after drug treatment
pIC50: −log10 of the molar value.
Please enter 1 where pIC50 is greater than or equal to 6, and 0 where it is lower.

Req: Check if pIC50 >= 6 (inclusive). Item: OCCN1CCC(n2ncc3c(N4CCOCC4)nc(-c4ccc5[nH]ccc5c4)nc32)CC1 [Compound 246]
Resp: 0

Req: Continue with `O=C1COCCN1c1nc(-c2cccc(O)c2)nc2c1cnn2-c1ccccc1`
Resp: 0

Req: Continue with `CC(=O)Nc1cccc(-c2nc(N3CCOCC3)c3cnn(-c4ccccc4)c3n2)c1`
Resp: 0

Req: Continue with `CCOC(=O)N1CCC(n2ncc3c(N4CCOC[C@@H]4C)nc(-c4ccc(NC(=O)Nc5cccnc5)cc4)nc32)CC1`
Resp: 1

Req: Continue with `COCCC(=O)Nc1ccc(-c2nc(N3CCOCC3)c3cnn(-c4ccccc4)c3n2)cc1`
Resp: 0

Req: Continue with `CCOC(=O)N1CCC(n2ncc3c(N4CCOC[C@H]4C)nc(-c4ccc(NC(=O)NCCF)cc4)nc32)CC1`
Resp: 1

---

Tested on: breast line MDA468
Experiment: In vitro cell culture growth assay (MTS), MDA468
Type: cell-based, human
Conditions: Homo sapiens, 72 h, MDA468 cells, three days after drug treatment
pIC50: −log10 of the molar value.
// class assignment uses pIC50 with these ranges: 0 (below 5), 1 (5 to below 6), 2 (6 or more)

Some solved entries appear below for comparison.
compound	group.label
c1ccc(CN2CCC(n3ncc4c(N5CCOCC5)nc(-c5cnc6ccccc6c5)nc43)CC2)cc1 [Compound 484]	0
CCNC(=O)Nc1ccc(-c2nc(N3CCOCC3)c3cnn(C4CCN(C(=O)OC(C)(C)C)CC4)c3n2)cc1 [Compound 764]	2
CNC(=O)Nc1ccc(-c2nc(N3CCOCC3)c3cnn(C4CCN(CC(F)(F)F)CC4)c3n2)cc1 [Example 470]	2
CN1CCC(n2ncc3c(N4CCOCC4)nc(-c4ccc5[nH]ccc5c4)nc32)CC1 [Compound 124]	1
CC(C)C(=O)N1CCC(n2ncc3c(N4CCOCC4)nc(-c4ccc(NC(=O)Nc5ccccn5)cc4)nc32)CC1 [Compound 827]	0

Req: Lab note: which band did CNC(=O)Nc1ccc(-c2nc(N3CCOCC3)c3cnn(C4CCN(Cc5ccc(Cl)cc5)CC4)c3n2)cc1 [Example 394] land in?
Resp: 2

Req: Continue with COc1ccc(NC2CCC(n3ncc4c(N5CCOCC5)nc(-c5ccc6[nH]ccc6c5)nc43)CC2)cc1 (centres unmarked) [Compound 153]
Resp: 1

Req: Continue with CC(C)(C)OC(=O)N1CCC(n2ncc3c(N4CCOCC4)nc(-c4ccc(NC(=O)Nc5cnccn5)cc4)nc32)CC1 [Compound 885]
Resp: 0
